These measurements were taken from PubChem BioAssay AID1159580.

TEST_DETAILS: chemical genetic growth profiling, strain panel (AID 1159580);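 note: tested at 20 µM; growth read once vehicle control cultures reached saturation at 30 °C; 1 = growth at the plate median or of vehicle wells; lower values mean less growth of the strain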
SETUP_CONDITIONS: S. cerevisiae deletion strains, growth OD, locus YLR330W, strain CHS5, active compounds read low
The campaign covered roughly 5,500 compounds. About 2,000 (36%) were called active. Another 18% or so got no clear call; they are omitted. This is one part of the list.
QUANTITY_MEASURED: normalized growth
Response field accepts a number only; no unit should be typed.

INSERT INTO assay_data (compound, quantity_measured, readout_number) VALUES
  ('CC(C)CCCC(C)C1CC[C@@]2(C)C3=C(CC[C@]12C)[C@@]1(C)CC[C@H](O)C(C)(C)C1CC3 (stereo partly specified)', 'normalized growth', 1),
  ('CCCOc1ccc2nc(NC(=O)OC)[nH]c2c1', 'normalized growth', 0.989),
  ('COc1ccccc1OCC(O)CO (stereo unspecified)', 'normalized growth', 1.02),
  ('CCCc1c(OCCCCc2nn[nH]n2)ccc(C(C)=O)c1O', 'normalized growth', 1.01),
  ('Oc1cccc(O)c1', 'normalized growth', 1.01),
  ('O=P1(N(CCCl)CCCl)NCCCO1 (stereo unspecified)', 'normalized growth', 1.01),
  ('CCN(CC)CCOC(=O)C1(C2CCCCC2)CCCCC1', 'normalized growth', 0.999),
  ('CC(C)=CCCC(C)[C@@H]1CC[C@]2(C)C3=C(CC[C@@]12C)C1(C)CC[C@H](O)C(C)(C)C1CC3 (stereo partly specified)', 'normalized growth', 1.06);

Item "NS(=O)(=O)c1cc2c(cc1Cl)NC(CSCc1ccccc1)=NS2(=O)=O" has what recorded normalized growth?
0.987

For CCN(CC)CCOC(=O)C(c1ccccc1)C1CCCCC1 (stereo unspecified) , what is its reported normalized growth?
1

What normalized growth value was documented for this compound, CC(=O)O[C@H]1CCC2(C)C3=C(CCC2C1(C)C)[C@@]1(C)CC[C@@H](C(C)CCC=C(C)C)[C@]1(C)CC3 (stereo partly specified) ?
1.03
